Attribution: patent US12091411B2

# TARGET: IRAK4 (Homo sapiens, UniProt Q9NWZ3)
# Construct: Degradation of IRAK4 in OCI-LY10 was quantitatively measured using Meso Scale Discovery technology; endogenous in cells; host or cells: OCI-LY10
# Sequence (Q9NWZ3 whole entry): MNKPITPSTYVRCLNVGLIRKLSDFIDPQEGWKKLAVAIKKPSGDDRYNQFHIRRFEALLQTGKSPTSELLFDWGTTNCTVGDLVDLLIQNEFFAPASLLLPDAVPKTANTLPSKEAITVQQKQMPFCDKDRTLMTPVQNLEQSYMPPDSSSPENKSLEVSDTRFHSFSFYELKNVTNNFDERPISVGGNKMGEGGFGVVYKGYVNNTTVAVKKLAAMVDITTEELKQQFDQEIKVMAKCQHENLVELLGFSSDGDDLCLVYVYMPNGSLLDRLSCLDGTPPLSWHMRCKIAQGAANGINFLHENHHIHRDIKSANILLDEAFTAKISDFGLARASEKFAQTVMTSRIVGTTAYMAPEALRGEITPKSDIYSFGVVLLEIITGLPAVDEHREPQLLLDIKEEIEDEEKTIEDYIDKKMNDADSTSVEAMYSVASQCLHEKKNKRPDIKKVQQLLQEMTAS
# METHOD SUMMARY: IRAK4 MSD Degradation in OCI-LY10
# Assay type: cell-based
# EXPERIMENTAL PARAMETERS: OCI-LY10 cells, 24 hrs incubation, MSD; read-out: IRAK4 degradation in OCI-LY10 at 24 hrs: DC50
METRIC: DC50

Please review the following examples before continuing.
# MOLECULE, METRIC, MEAS VALUE
records = [
    ("COc1cc2nn([C@H]3CC[C@H](CN4CC(c5c(OC)ccc6c5n(C)c(=O)n6C5CCC(=O)NC5=O)C4)CC3)cc2cc1NC(=O)c1cccc(C(C)(C)F)n1 (stereo partly drawn)", "DC50", "> 200 nM"),
    ("Cn1c(=O)n(C2CCC(=O)NC2=O)c2cccc(C#CCO[C@H]3CCN(C[C@H]4CC[C@H](n5cc(NC(=O)c6cnn7ccc(N8C[C@H]9C[C@@H]8CO9)nc67)c(C(F)F)n5)CC4)C3)c21 (stereo partly drawn)", "DC50", "> 200 nM"),
]

Read the next record carefully.
Which value of DC50 has been reported for Cn1c(=O)n(C2CCC(=O)NC2=O)c2cccc(C3CN(C[C@H]4CC[C@H](n5cc6cc(NC(=O)c7cccc(C(F)(F)F)n7)ncc6n5)CC4)C3)c21 (stereo partly drawn) in the records?
> 200 nM

* * *

# TARGET: IRAK4 (Homo sapiens)
# Construct: Degradation of IRAK4 in OCI-LY10 was quantitatively measured using Meso Scale Discovery technology; endogenous in cells; host or cells: OCI-LY10
# METHOD SUMMARY: IRAK4 MSD Degradation in OCI-LY10
# Format: cell-based
# EXPERIMENTAL PARAMETERS: OCI-LY10 cells, 24 hrs incubation, MSD; read-out: IRAK4 degradation in OCI-LY10 at 24 hrs: DC50
METRIC: DC50

# COMPOUND, MEAS VALUE
rows = [
    ("Cn1c(=O)n(C2CCC(=O)NC2=O)c2cccc(C#CCN3CCN(C[C@H]4CC[C@H](n5cc(NC(=O)c6cnn7ccc(N8CCCOCC8)nc67)c(C(F)F)n5)CC4)CC3)c21 (stereo partly shown)", "< 10 nM"),
    ("Cc1cccc(C(=O)Nc2cc3cn([C@H]4CC[C@H](CN5CC[C@H](c6cccc7c6n(C)c(=O)n7C6CCC(=O)NC6=O)[C@@H](F)C5)CC4)nc3cn2)n1 (stereo partly shown)", "> 200 nM"),
    ("CN(C[C@H]1CC[C@H](n2cc(NC(=O)c3cnn4ccc(N5CCS(=O)(=O)CC5)nc34)c(C(F)F)n2)CC1)C1CCN(c2cccc3c2n(C)c(=O)n3C2CCC(=O)NC2=O)CC1(F)F (stereo partly shown)", "> 200 nM"),
    ("CN(C[C@H]1CC[C@H](n2cc3cc(NC(=O)c4cccc(C(F)(F)F)n4)c(C#N)cc3n2)CC1)C1CCN(c2cccc3c2n(C)c(=O)n3C2CCC(=O)NC2=O)CC1F (stereo partly shown)", "> 200 nM"),
    ("CN(C[C@H]1CC[C@H](n2cc(NC(=O)c3cnn4ccc(N5CCCC56CC6)nc34)c(C(F)F)n2)CC1)C1CCN(c2cccc3c2n(C)c(=O)n3C2CCC(=O)NC2=O)CC1(F)F (stereo partly shown)", "> 200 nM"),
]

Which value of DC50 has been reported for CN(C[C@H]1CC[C@H](n2cc(NC(=O)c3cnn4ccc(N5CCOC6(CC6)C5)nc34)c(C(F)F)n2)CC1)C1CCN(c2cccc3c2n(C)c(=O)n3C2CCC(=O)NC2=O)CC1 (stereo partly shown) in the records?
< 10 nM

Which value of DC50 has been reported for Cn1c(=O)n(C2CCC(=O)NC2=O)c2cccc(C#CCN3C[C@@H]4C[C@H]3CN4C[C@H]3CC[C@H](n4cc(NC(=O)c5cnn6ccc(N7C[C@H]8C[C@@H]7CO8)nc56)c(C(F)F)n4)CC3)c21 (stereo partly shown) in the records?
> 200 nM

Which value of DC50 has been reported for Cn1c(=O)n(C2CCC(=O)NC2=O)c2cccc(C#CCN3C4CC3CN(C[C@H]3CC[C@H](n5cc(NC(=O)c6cnn7ccc(N8C[C@H]9C[C@@H]8CO9)nc67)c(C(F)F)n5)CC3)C4)c21 (stereo partly shown) in the records?
> 200 nM

Which value of DC50 has been reported for Cn1c(=O)n(C2CCC(=O)NC2=O)c2cccc(C#CCN3CCN(C[C@H]4CC[C@H](n5cc(NC(=O)c6cnn7ccc(N8CCOC9(CC9)C8)nc67)c(C(F)F)n5)CC4)CC3)c21 (stereo partly shown) in the records?
< 10 nM

Which value of DC50 has been reported for Cn1c(=O)n(C2CCC(=O)NC2=O)c2cccc(C#CCOC3CCN(C[C@H]4CC[C@H](c5ccc(NC(=O)c6cnn7ccc(N8C[C@H]9C[C@@H]8CO9)nc67)c(C(F)F)c5)CC4)CC3)c21 (stereo partly shown) in the records?
> 200 nM

* * *

# TARGET: IRAK4 (Homo sapiens, UniProt Q9NWZ3)
# Construct: Degradation of IRAK4 in OCI-LY10 was quantitatively measured using Meso Scale Discovery technology; endogenous in cells; host or cells: OCI-LY10
# METHOD SUMMARY: IRAK4 MSD Degradation in OCI-LY10
# Format: cell-based
# EXPERIMENTAL PARAMETERS: OCI-LY10 cells, 24 hrs incubation, MSD; read-out: IRAK4 degradation in OCI-LY10 at 24 hrs: DC50
METRIC: DC50

# COMPOUND, DC50
rows = [
    ("C[C@H]1CN(C[C@H]2C[C@H](n3cc(NC(=O)c4cnn5ccc(N6C[C@H]7C[C@@H]6CO7)nc45)c(C(F)F)n3)C2)CC[C@@H]1OCC#Cc1cccc2c(N3CCC(=O)NC3=O)cncc12", "> 0.2 µM"),
    ("CN(C[C@H]1CC[C@H](n2cc(NC(=O)c3cnn4ccc(N5CC6(CCCOC6)C5)nc34)c(C(F)F)n2)CC1)C1CCN(c2cccc3c2n(C)c(=O)n3C2CCC(=O)NC2=O)CC1(F)F (some centres unmarked)", "0.01 to 0.1 µM"),
    ("CN(C[C@H]1CC[C@H](n2cc(NC(=O)c3cnn4ccc(N5CC6(CCOCC6)C5)nc34)c(C(F)F)n2)CC1)C1CCN(c2cccc3c2n(C)c(=O)n3C2CCC(=O)NC2=O)CC1(F)F (some centres unmarked)", "0.01 to 0.1 µM"),
    ("CN(C[C@H]1CC[C@H](n2cc(NC(=O)c3cnn4ccc(N5CCC6(CC5)CC6)nc34)c(C(F)F)n2)CC1)C1CCN(c2cccc3c2n(C)c(=O)n3C2CCC(=O)NC2=O)CC1(F)F (some centres unmarked)", "> 0.2 µM"),
    ("Cn1c(=O)n(C2CCC(=O)NC2=O)c2cccc(C#CCN3CCN(C[C@H]4CC[C@H](n5cc(NC(=O)c6cncc(C#N)c6)c(C(C)(C)O)n5)CC4)CC3)c21 (some centres unmarked)", "> 0.2 µM"),
    ("Cc1cccc(C(=O)Nc2ccc3nn([C@H]4CC[C@H](CN5CC[C@@H](c6cccc7c6n(C)c(=O)n7C6CCC(=O)NC6=O)[C@H](F)C5)CC4)cc3c2)n1 (some centres unmarked) [I-621]", "> 0.2 µM"),
    ("Cn1c(=O)n(C2CCC(=O)NC2=O)c2cccc(C#CCN3CCN(C[C@H]4CC[C@H](n5cc(NC(=O)c6cnn7ccc(N8CCC9(CCOC9)C8)nc67)c(C(F)F)n5)CC4)CC3)c21 (some centres unmarked)", "< 0.01 µM"),
    ("Cn1c(=O)n(C2CCC(=O)NC2=O)c2cccc(C3CCN(C[C@H]4CC[C@H](n5cc6cc(NC(=O)c7cccc(C(F)(F)F)n7)c(C#N)cc6n5)CC4)CC3(F)F)c21 (some centres unmarked) [I-705]", "< 0.01 µM"),
    ("Cn1c(=O)n(C2CCC(=O)NC2=O)c2cccc([C@@H]3CCN(C[C@H]4CC[C@H](n5cc6cc(NC(=O)c7cccc(C#N)n7)ccc6n5)CC4)C[C@@H]3F)c21 (some centres unmarked)", "> 0.2 µM"),
    ("Cn1c(=O)n(C2CCC(=O)NC2=O)c2cccc(N3CCN([C@H]4CC[C@H](n5cc(NC(=O)c6cnn7ccc(N8C[C@H]9C[C@@H]8CO9)nc67)c(C(F)F)n5)CC4)CC3)c21 (some centres unmarked)", "> 0.2 µM"),
]

Read the next record carefully.
Which value of DC50 has been reported for Cc1cccc(C(=O)Nc2ccc3nn([C@H]4CC[C@H](CN5CCC(c6cccc7c6n(C)c(=O)n7C6CCC(=O)NC6=O)C(F)(F)C5)CC4)cc3c2)n1 (some centres unmarked) in the records?
> 0.2 µM
